Recorded pKi, one value per entry.
# SYSTEM_TESTED: C-C chemokine receptor type 2 (Homo sapiens, UniProt P41597)
# Sequence (P41597 whole entry): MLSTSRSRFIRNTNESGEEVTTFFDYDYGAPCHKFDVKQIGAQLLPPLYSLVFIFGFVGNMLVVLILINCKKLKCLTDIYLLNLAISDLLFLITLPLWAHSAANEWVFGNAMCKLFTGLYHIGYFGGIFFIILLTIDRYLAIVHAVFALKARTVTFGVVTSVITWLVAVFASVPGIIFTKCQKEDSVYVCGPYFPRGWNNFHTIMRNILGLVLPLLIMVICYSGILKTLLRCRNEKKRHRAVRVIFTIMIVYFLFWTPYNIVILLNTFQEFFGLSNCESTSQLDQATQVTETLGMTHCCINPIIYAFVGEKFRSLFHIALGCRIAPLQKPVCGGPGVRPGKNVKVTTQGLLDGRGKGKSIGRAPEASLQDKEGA
# ASSAY_SUMMARY: Displacement of [3H]-CCR2-RA-[R] from human CCR2 expressed in human U2OS cells incubated for 2 hrs by scintillation spectrometric method
# Assay type: cell-based
# CONDITION_NOTES: read-out: Ki
pKi: −log10 of the molar value.
TEST_READOUT: pKi

[
  {
    "SMILES_STRING": "Nc1nc2[nH]c(C3CC3)c(Cc3ccc(Cl)cc3)c(=O)n2n1",
    "SYSTEM_TESTED": "C-C chemokine receptor type 2 (Homo sapiens, UniProt P41597)",
    "TEST_READOUT": "pKi",
    "OBSERVED_RESULT": 8.74
  },
  {
    "SMILES_STRING": "O=c1c(Cc2cccc(Cl)c2)c(C2CC2)[nH]c2ncnn12",
    "SYSTEM_TESTED": "C-C chemokine receptor type 2 (Homo sapiens, UniProt P41597)",
    "TEST_READOUT": "pKi",
    "OBSERVED_RESULT": 8.77
  },
  {
    "SMILES_STRING": "COc1ccc(Cc2c(C3CC3)[nH]c3nc(N)nn3c2=O)cc1",
    "SYSTEM_TESTED": "C-C chemokine receptor type 2 (Homo sapiens, UniProt P41597)",
    "TEST_READOUT": "pKi",
    "OBSERVED_RESULT": 7.68
  },
  {
    "SMILES_STRING": "CCC(CC)Cc1[nH]c2nc(N)nn2c(=O)c1Cc1cccc(Cl)c1",
    "SYSTEM_TESTED": "C-C chemokine receptor type 2 (Homo sapiens, UniProt P41597)",
    "TEST_READOUT": "pKi",
    "OBSERVED_RESULT": 8.19
  },
  {
    "SMILES_STRING": "Nc1nc2[nH]c(C3CC3)c(Cc3cccc(Cl)c3)c(=O)n2n1",
    "SYSTEM_TESTED": "C-C chemokine receptor type 2 (Homo sapiens, UniProt P41597)",
    "TEST_READOUT": "pKi",
    "OBSERVED_RESULT": 8.89
  },
  {
    "SMILES_STRING": "Nc1nc2[nH]c(C3CC3)c(Cc3ccccc3)c(=O)n2n1",
    "SYSTEM_TESTED": "C-C chemokine receptor type 2 (Homo sapiens, UniProt P41597)",
    "TEST_READOUT": "pKi",
    "OBSERVED_RESULT": 8.23
  },
  {
    "SMILES_STRING": "Nc1nc2[nH]c(C3CC3)c(Cc3ccccc3Cl)c(=O)n2n1",
    "SYSTEM_TESTED": "C-C chemokine receptor type 2 (Homo sapiens, UniProt P41597)",
    "TEST_READOUT": "pKi",
    "OBSERVED_RESULT": 7.84
  },
  {
    "SMILES_STRING": "CC(C)c1[nH]c2nc(N)nn2c(=O)c1Cc1cc(Br)cc(Br)c1",
    "SYSTEM_TESTED": "C-C chemokine receptor type 2 (Homo sapiens, UniProt P41597)",
    "TEST_READOUT": "pKi",
    "OBSERVED_RESULT": 8.68
  },
  {
    "SMILES_STRING": "Nc1nc2[nH]c(C3CC3)c(Cc3ccc(Cl)c(Cl)c3)c(=O)n2n1",
    "SYSTEM_TESTED": "C-C chemokine receptor type 2 (Homo sapiens, UniProt P41597)",
    "TEST_READOUT": "pKi",
    "OBSERVED_RESULT": 9.40
  },
  {
    "SMILES_STRING": "CCCCc1[nH]c2nc(N)nn2c(=O)c1Cc1cccc(Cl)c1",
    "SYSTEM_TESTED": "C-C chemokine receptor type 2 (Homo sapiens, UniProt P41597)",
    "TEST_READOUT": "pKi",
    "OBSERVED_RESULT": 8.64
  },
  {
    "SMILES_STRING": "Nc1nc2[nH]c(-c3ccccc3)c(Cc3cccc(Cl)c3)c(=O)n2n1",
    "SYSTEM_TESTED": "C-C chemokine receptor type 2 (Homo sapiens, UniProt P41597)",
    "TEST_READOUT": "pKi",
    "OBSERVED_RESULT": 7.57
  },
  {
    "SMILES_STRING": "Nc1nc2[nH]c(CCc3ccccc3)c(Cc3cccc(Cl)c3)c(=O)n2n1",
    "SYSTEM_TESTED": "C-C chemokine receptor type 2 (Homo sapiens, UniProt P41597)",
    "TEST_READOUT": "pKi",
    "OBSERVED_RESULT": 7.28
  },
  {
    "SMILES_STRING": "CC(C)c1[nH]c2nc(N)nn2c(=O)c1Cc1cccc(Cl)c1Cl",
    "SYSTEM_TESTED": "C-C chemokine receptor type 2 (Homo sapiens, UniProt P41597)",
    "TEST_READOUT": "pKi",
    "OBSERVED_RESULT": 8.80
  },
  {
    "SMILES_STRING": "Nc1nc2[nH]c(C3CC3)c(Cc3cccc(F)c3)c(=O)n2n1",
    "SYSTEM_TESTED": "C-C chemokine receptor type 2 (Homo sapiens, UniProt P41597)",
    "TEST_READOUT": "pKi",
    "OBSERVED_RESULT": 8.47
  },
  {
    "SMILES_STRING": "Nc1nc2[nH]c(C3CCCC3)c(Cc3cccc(Cl)c3)c(=O)n2n1",
    "SYSTEM_TESTED": "C-C chemokine receptor type 2 (Homo sapiens, UniProt P41597)",
    "TEST_READOUT": "pKi",
    "OBSERVED_RESULT": 8.80
  },
  {
    "SMILES_STRING": "Cc1ccc(-c2[nH]c3nc(N)nn3c(=O)c2Cc2cccc(Cl)c2)cc1",
    "SYSTEM_TESTED": "C-C chemokine receptor type 2 (Homo sapiens, UniProt P41597)",
    "TEST_READOUT": "pKi",
    "OBSERVED_RESULT": 6.80
  },
  {
    "SMILES_STRING": "CC(C)c1[nH]c2nc(N)nn2c(=O)c1Cc1ccc(Cl)c(Cl)c1",
    "SYSTEM_TESTED": "C-C chemokine receptor type 2 (Homo sapiens, UniProt P41597)",
    "TEST_READOUT": "pKi",
    "OBSERVED_RESULT": 9.22
  },
  {
    "SMILES_STRING": "CC(C)c1[nH]c2nc(N)nn2c(=O)c1Cc1cc(Cl)cc(Cl)c1",
    "SYSTEM_TESTED": "C-C chemokine receptor type 2 (Homo sapiens, UniProt P41597)",
    "TEST_READOUT": "pKi",
    "OBSERVED_RESULT": 8.66
  },
  {
    "SMILES_STRING": "Nc1nc2[nH]c(C3CC3)c(Cc3ccc(Br)cc3)c(=O)n2n1",
    "SYSTEM_TESTED": "C-C chemokine receptor type 2 (Homo sapiens, UniProt P41597)",
    "TEST_READOUT": "pKi",
    "OBSERVED_RESULT": 8.82
  },
  {
    "SMILES_STRING": "CC(C)c1[nH]c2nc(N)nn2c(=O)c1Cc1ccc(Cl)c(Br)c1",
    "SYSTEM_TESTED": "C-C chemokine receptor type 2 (Homo sapiens, UniProt P41597)",
    "TEST_READOUT": "pKi",
    "OBSERVED_RESULT": 9.40
  },
  {
    "SMILES_STRING": "Nc1nc2[nH]c(C3CC3)c(Cc3cccc(Br)c3)c(=O)n2n1",
    "SYSTEM_TESTED": "C-C chemokine receptor type 2 (Homo sapiens, UniProt P41597)",
    "TEST_READOUT": "pKi",
    "OBSERVED_RESULT": 9.05
  },
  {
    "SMILES_STRING": "COc1cccc(Cc2c(C3CC3)[nH]c3nc(N)nn3c2=O)c1",
    "SYSTEM_TESTED": "C-C chemokine receptor type 2 (Homo sapiens, UniProt P41597)",
    "TEST_READOUT": "pKi",
    "OBSERVED_RESULT": 7.89
  },
  {
    "SMILES_STRING": "Cc1ccccc1Cc1c(C2CC2)[nH]c2nc(N)nn2c1=O",
    "SYSTEM_TESTED": "C-C chemokine receptor type 2 (Homo sapiens, UniProt P41597)",
    "TEST_READOUT": "pKi",
    "OBSERVED_RESULT": 7.80
  },
  {
    "SMILES_STRING": "Cc1ccc(Cc2c(C3CC3)[nH]c3nc(N)nn3c2=O)cc1",
    "SYSTEM_TESTED": "C-C chemokine receptor type 2 (Homo sapiens, UniProt P41597)",
    "TEST_READOUT": "pKi",
    "OBSERVED_RESULT": 8.46
  },
  {
    "SMILES_STRING": "CCCCCCCc1[nH]c2nc(N)nn2c(=O)c1Cc1cccc(Cl)c1",
    "SYSTEM_TESTED": "C-C chemokine receptor type 2 (Homo sapiens, UniProt P41597)",
    "TEST_READOUT": "pKi",
    "OBSERVED_RESULT": 6.75
  },
  {
    "SMILES_STRING": "CC(C)c1[nH]c2nc(N)nn2c(=O)c1Cc1cccc(Cl)c1",
    "SYSTEM_TESTED": "C-C chemokine receptor type 2 (Homo sapiens, UniProt P41597)",
    "TEST_READOUT": "pKi",
    "OBSERVED_RESULT": 8.72
  },
  {
    "SMILES_STRING": "CCCCCCc1[nH]c2nc(N)nn2c(=O)c1Cc1cccc(Cl)c1",
    "SYSTEM_TESTED": "C-C chemokine receptor type 2 (Homo sapiens, UniProt P41597)",
    "TEST_READOUT": "pKi",
    "OBSERVED_RESULT": 7.66
  }
]
